experiment: chemical genetic growth profiling, strain panel (AID 1159580);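 note: tested at 20 µM; growth read once vehicle control cultures reached saturation at 30 °C; 1 = growth at the plate median or of vehicle wells; lower values mean less growth of the strain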; details: S. cerevisiae deletion strains, growth OD, locus YGR078C, strain PAC10, stronger effect = lower value
Hit rate of the full screen: of about 5,500 compounds, about 2,000 (36%) were called active. Roughly 18% stayed inconclusive and do not appear here. Some of the results follow.
value_kind: normalized growth
Respond numerically, and do not add a unit to the figure.

These solved cases illustrate the format of a correct answer.
Q: Field request: normalized growth | item: O=C(Cc1ccc(Cl)c(Cl)c1)OCCN1CCCC1
A: 0.994

Q: Could you do the same for COc1cc(/C=N\NC(=S)NC2CC3CCC2C3)cc(OC)c1OC (stereo unspecified) , please?
A: 1

Q: Next: Cc1nn(-c2ccccc2)nc1C(=O)NNC(=S)Nc1ccc(Cl)cc1
A: 0.991

Q: Do the same for Cc1ccc(=O)n(Cc2ccc(Cl)c(Cl)c2)n1 please
A: 0.977

Q: Same read-out for NC(N)=NC(N)=Nc1ccccc1 ?
A: 1.01

Here is the next item to consider.
Q: Using the record for Cn1c(=O)c(-c2ccccc2)c(O)c2ccccc21 , report its normalized growth.
A: 0.871

Value source: PubChem BioAssay AID1159580
